# TARGET_SYSTEM: Kinesin-like protein KIF20A (Homo sapiens)
# MEASUREMENT_DESCRIPTION: Inhibition of microtubule-stimulated N-terminal MKLP-2 (56 to 505 residues) ATPase activity isolated from human hepatocellular carcinoma cells by pyruvate kinase/lactate dehydrogenase enzyme linked assay
METRIC: IC50

N#C/C(=C\c1cccnc1)c1c(-c2ccccc2)[nH]c2ccccc12    Not Active
COc1ccc2c(c1)c(/C(C#N)=C/c1cccnc1)cn2C    Not Active
COc1cc(OC)c(/C=C(\C#N)c2c[nH]c3ccccc23)c(OC)c1    Not Active
N#C/C(=C\c1ccc(C(F)(F)F)cc1)c1c[nH]c2ccccc12    Not Active
COc1cc(/C=C(\C#N)c2c[nH]c3ccccc23)cc(OC)c1O    Not Active

## Input Tell me the measured IC50 of CC(=O)O[C@H]1C(=O)[C@@]2(C)[C@H]([C@H](OC(=O)c3ccccc3)[C@]3(O)C[C@H](OC(=O)[C@H](O)[C@@H](NC(=O)c4ccccc4)c4ccccc4)C(C)=C1C3(C)C)[C@]1(OC(C)=O)CO[C@@H]1C[C@@H]2O , please.
## Output Not Active

## Input Which IC50 is reported for this compound? COc1ccc2[nH]cc(/C(C#N)=C/C=C/c3cccnc3)c2c1
## Output Not Active

## Input Item under review: COc1cc2c(c(OC)c1OC)-c1ccc(OC)c(=O)cc1[C@@H](NC(C)=O)CC2 . Reported IC50?
## Output Not Active

## Input Which IC50 value is on record for COc1ccc2[nH]cc(/C(=C/C#N)Cc3cccnc3)c2c1 ?
## Output Not Active

## Input Requested read-out: IC50. Entry: COc1cccc2c(/C(C#N)=C/c3cccnc3)c[nH]c12
## Output Not Active

## Input Item under review: COc1ccc(/C=C(\C#N)c2c[nH]c3ccccc23)cc1OC . Reported IC50?
## Output Not Active

## Input Could you share which IC50 value was measured for COc1ccc2[nH]cc(C(=O)/C(C#N)=C/c3cccnc3)c2c1 ?
## Output Not Active

## Input Form field: reported IC50 of N#C/C(=C\c1cccnc1)c1c(-c2ccsc2)[nH]c2ccccc12
## Output Not Active

## Input Given COc1ccc2[nH]cc(C(C#N)c3cccnc3)c2c1 (stereo not drawn) , state its recorded IC50.
## Output Not Active

## Input What does the record list as IC50 for CC(=O)O[C@@]12CO[C@@H]1C[C@H](O)[C@@]1(C)C(=O)[C@H](O)C3=C(C)[C@@H](OC(=O)[C@H](O)[C@@H](NC(=O)OC(C)(C)C)c4ccccc4)C[C@@](O)([C@@H](OC(=O)c4ccccc4)[C@H]21)C3(C)C [DOCETAXEL ANHYDROUS] ?
## Output Not Active

## Input Returns the measured IC50 for the input compound. Input: COc1cccc(/C=C(\C#N)c2c[nH]c3ccccc23)c1OC
## Output Not Active

## Input Endpoint output: IC50 of COc1cc(OC)c(OC)cc1/C=C(\C#N)c1c[nH]c2ccccc12 . Value?
## Output Not Active

## Input What IC50 value was documented for this compound, COc1cc(/C=C(\C#N)c2c[nH]c3ccccc23)cc(OC)c1OC ?
## Output Not Active

###

# Species: Ovis aries
# MEASUREMENT_DESCRIPTION: Inhibition of sheep brain microtubule disassembly by UV spectrophotometric analysis
# Parameters: concentration or dose not given beside the values
METRIC: Activity (%)

Examples from the recorded data:
N#CC(Cc1cccnc1)c1c[nH]c2ccccc12 (stereo not drawn)    21
COc1ccc2[nH]cc(C(=O)/C(C#N)=C/c3cccnc3)c2c1    14
COc1cccc(/C=C(\C#N)c2c[nH]c3ccccc23)c1    38
COc1cc(/C=C(\C#N)c2c[nH]c3ccccc23)cc(OC)c1    11
COc1cc(OC)c(/C=C(\C#N)c2c[nH]c3ccccc23)c(OC)c1    13
N#C/C(=C\c1cccnc1)c1c(-c2ccccc2)[nH]c2ccccc12    13

[I] COc1cc(/C=C(\C#N)c2c[nH]c3ccccc23)cc(OC)c1O
[II] COc1ccc2c(c1)c(/C(C#N)=C/c1cccnc1)cn2C
## Input Look at I and II . Which one has the lower recorded Activity number? Pick one and reply with its label.
## Output II

###

# TARGET_SYSTEM: Kinesin-like protein KIF20A (Homo sapiens, UniProt O95235)
# Sequence (O95235 whole entry, the tested form may be a part): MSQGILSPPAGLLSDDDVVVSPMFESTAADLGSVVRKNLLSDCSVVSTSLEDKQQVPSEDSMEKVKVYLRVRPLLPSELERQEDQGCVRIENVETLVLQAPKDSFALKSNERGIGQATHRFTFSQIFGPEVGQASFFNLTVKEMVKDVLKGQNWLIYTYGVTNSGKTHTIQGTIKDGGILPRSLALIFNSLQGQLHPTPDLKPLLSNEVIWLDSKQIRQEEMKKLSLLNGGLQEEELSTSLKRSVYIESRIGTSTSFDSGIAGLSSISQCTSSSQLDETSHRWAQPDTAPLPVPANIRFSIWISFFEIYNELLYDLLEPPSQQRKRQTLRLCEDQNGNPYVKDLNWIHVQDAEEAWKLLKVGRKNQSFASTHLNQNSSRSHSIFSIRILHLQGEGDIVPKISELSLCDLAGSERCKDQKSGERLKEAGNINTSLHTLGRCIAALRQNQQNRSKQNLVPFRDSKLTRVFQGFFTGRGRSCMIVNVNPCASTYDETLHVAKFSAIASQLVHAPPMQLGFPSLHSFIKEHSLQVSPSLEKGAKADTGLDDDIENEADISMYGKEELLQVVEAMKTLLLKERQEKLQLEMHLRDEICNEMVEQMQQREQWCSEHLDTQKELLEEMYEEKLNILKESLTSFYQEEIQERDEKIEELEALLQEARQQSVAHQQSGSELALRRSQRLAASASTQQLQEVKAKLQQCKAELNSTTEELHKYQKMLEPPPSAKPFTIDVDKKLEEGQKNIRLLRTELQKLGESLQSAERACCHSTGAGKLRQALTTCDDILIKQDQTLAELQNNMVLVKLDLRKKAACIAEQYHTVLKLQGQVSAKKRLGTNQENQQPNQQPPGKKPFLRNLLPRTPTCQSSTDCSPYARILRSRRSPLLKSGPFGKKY
# MEASUREMENT_DESCRIPTION: Inhibition of N-terminal MKLP2 (56 to 505 residues) ATPase basal activity isolated from human hepatocellular carcinoma cells by pyruvate kinase/lactate dehydrogenase enzyme linked assay
METRIC: IC50

COc1cc(/C=C(\C#N)c2c[nH]c3ccccc23)cc(OC)c1O    Not Active
CSc1ccc(/C=C(\C#N)c2c[nH]c3ccccc23)cc1    Not Active
COc1cc(OC)c(/C=C(\C#N)c2c[nH]c3ccccc23)c(OC)c1    Not Active
COc1ccc2[nH]cc(/C(=C/C#N)Cc3cccnc3)c2c1    Not Active
CC(=O)O[C@@]12CO[C@@H]1C[C@H](O)[C@@]1(C)C(=O)[C@H](O)C3=C(C)[C@@H](OC(=O)[C@H](O)[C@@H](NC(=O)OC(C)(C)C)c4ccccc4)C[C@@](O)([C@@H](OC(=O)c4ccccc4)[C@H]21)C3(C)C [DOCETAXEL ANHYDROUS]    Not Active
COc1ccc(/C=C(\C#N)c2c[nH]c3ccccc23)c(OC)c1    Not Active
N#C/C(=C\c1ccc(C(F)(F)F)cc1)c1c[nH]c2ccccc12    Not Active
COc1ccc2[nH]cc(/C(C#N)=C/C=C/c3cccnc3)c2c1    Not Active
COc1cccc2c(/C(C#N)=C/c3cccnc3)c[nH]c12    Not Active
N#C/C(=C\c1cccnc1)c1c[nH]c2ccc(OCc3ccccc3)cc12    Not Active

## Input Query: IC50; subject: COc1cc2c(c(OC)c1OC)-c1ccc(OC)c(=O)cc1[C@@H](NC(C)=O)CC2 [COLCHICINE]
## Output Not Active

## Input Request the reported IC50 associated with COc1cccc(/C=C(\C#N)c2c[nH]c3ccccc23)c1OC
## Output Not Active

## Input Which IC50 value is on record for COc1cc(/C=C(\C#N)c2c[nH]c3ccccc23)cc(OC)c1OC ?
## Output Not Active

###

# TARGET_SYSTEM: Kinesin-like protein KIF20A (Homo sapiens)
# MEASUREMENT_DESCRIPTION: Inhibition of microtubule-stimulated N-terminal MKLP-2 (56 to 505 residues) ATPase activity isolated from human hepatocellular carcinoma cells by pyruvate kinase/lactate dehydrogenase enzyme linked assay
# TEST_CONDITIONS: read-out: IC50
METRIC: IC50 (µM)

Below, 3 molecules whose answers are already recorded.
N#C/C(=C\c1ccc2c(c1)OCO2)c1c[nH]c2ccccc12    5.1
COc1ccc2c(/C(C#N)=C/c3cccnc3)c[nH]c2c1    5.4
N#C/C(=C\c1cccnc1)c1c[nH]c2ccc(OCc3ccccc3)cc12    1.3

[P] COc1ccc2[nH]cc(/C(C#N)=C/c3cccnc3)c2c1
[Q] COc1cccc2[nH]cc(/C(C#N)=C/c3cccnc3)c12
## Input Kindly compare P with Q and tell me which has the lower IC50 figure. // output: label of the selected item
## Output P
(P: 0.23 µM, Q: 3.3 µM)

###

# Organism: Ovis aries
# MEASUREMENT_DESCRIPTION: Inhibition of sheep brain tubulin polymerization by UV spectrophotometric analysis
# Parameters: concentration or dose not given beside the values
# TEST_CONDITIONS: concentration not given here
METRIC: inhibition (%)

[A] N#C/C(=C\c1cccnc1)c1c[nH]c2ncccc12
[B] COc1ccc2c(/C(C#N)=C/c3cccnc3)c[nH]c2c1
## Input API: POST /compare with A and B ; response names the item with higher inhibition. Lab note: record the label of whichever item you select.
## Output B

###

# TARGET_SYSTEM: Kinesin-like protein KIF20A (Homo sapiens)
# MEASUREMENT_DESCRIPTION: Inhibition of N-terminal MKLP2 (56 to 505 residues) ATPase basal activity isolated from human hepatocellular carcinoma cells by pyruvate kinase/lactate dehydrogenase enzyme linked assay
# TEST_CONDITIONS: read-out: IC50
pIC50: −log10 of the molar value.
METRIC: pIC50

COc1ccc2[nH]cc(/C(C#N)=C/c3cccnc3)c2c1    5.92

[A] COc1ccc2c(/C(C#N)=C/c3cccnc3)c[nH]c2c1
[B] N#C/C(=C\c1ccc2c(c1)OCO2)c1c[nH]c2ccccc12
## Input // pick min by pIC50: A , B Refer to your chosen entry by its label in the reply.
## Output B

###

# TARGET_SYSTEM: Kinesin-like protein KIF23 (Homo sapiens)
# MEASUREMENT_DESCRIPTION: Inhibition of porcine brain microtubule-stimulated human recombinant GST-tagged MKLP1 ATPase activity at 15 uM by microplate reader in presence of Mg2+ ATP relative to control
Listing of entries alongside the reported inhibition.

COc1ccc2[nH]cc(/C(C#N)=C/c3cccnc3)c2c1    < 20%

## Input Query (molecule): CCOC(=O)C1=C(C)NC(=S)NC1c1cccc(O)c1 (stereo unspecified) ; field requested: inhibition
## Output < 20%
